# test method notes: Approximate solubilities of Form A in various solvents at ambient temperature
# Format: physicochemical
# particulars: dichloromethane, organic solvent or mixture, thermodynamic from solid, approximate
property name: solubility (mg/mL)

INSERT INTO results (molecule, property_name, reported) VALUES
  ('CC(=O)c1cc(C)cc(C)c1NC(=O)c1sccc1S(=O)(=O)Nc1onc(C)c1C [Form A]', 'solubility', 135);

----------
# test method notes: Approximate solubilities of Form A in various solvents at ambient temperature
# Type: physicochemical
# particulars: acetonitrile, organic solvent or mixture, thermodynamic from solid, approximate
property name: solubility (mg/mL)

INSERT INTO assay_data (compound, property_name, reported) VALUES
  ('CC(=O)c1cc(C)cc(C)c1NC(=O)c1sccc1S(=O)(=O)Nc1onc(C)c1C [Form A]', 'solubility', 72);
